# Test system: NCI-H522
# methodNotes: NCI tumour cell line growth inhibition, 48 h
Calls of active or inactive are those of the source. No stated cut-off is given here; in the data, active = GI50 up to about 1.1 µM and inactive = higher.
Pick one and only one: active, inactive

Some entries whose results are on file:
molecule | measuredTarget | qualitativeLabel
CC(=O)n1c2ccc(Br)cc2c2nc3ccccc3nc21 | NCI-H522 | inactive
Cc1ccc(S(=O)(=O)N/N=C2/CCC(C(C)(C)C)CC2Br)cc1 (centres undefined) | NCI-H522 | inactive
COc1ccc(C(=O)c2[nH]c(Nc3cc(C)ccn3)c(C(=S)Nc3ccccc3)c2N)cc1 | NCI-H522 | inactive
C=CC1=C(C)/C(=C/C2=NC(=C\c3[nH]c(CC4NC(=O)C(C)/C4=C\C)c(C)c3CCC(=O)O)/C(CC(=O)O)=C2C)NC1=O (centres undefined) | NCI-H522 | inactive

stdin: GET /call?item= N=C(N)Nc1ccc(-c2ccc(NC(=N)N)cc2)cc1 returns the recorded outcome of this test.
stdout: inactive

stdin: GET /call?item= O=[N+]([O-])c1ccc(Cl)c(C2SCc3nc4ccccc4n32)c1 (centres undefined) returns the recorded outcome of this test.
stdout: inactive

stdin: GET /call?item= CC1(C)OC(CCC#N)CN1C(=O)OCc1ccccc1 (centres undefined) returns the recorded outcome of this test.
stdout: inactive

stdin: GET /call?item= O=C(c1cccc(F)c1F)N1CCc2c([nH]c3ccccc23)C1c1ccc2c(c1)OCO2 (centres undefined) returns the recorded outcome of this test.
stdout: inactive

stdin: GET /call?item= CC1(C)CCCCC1/C=C/C(CC(O)(C(F)(F)F)C(F)(F)F)=N\Nc1ccc([N+](=O)[O-])cc1[N+](=O)[O-] (centres undefined) returns the recorded outcome of this test.
stdout: active

stdin: GET /call?item= CC(OC(C)(C)C)[C@H](NC(=O)OC(C)(C)C)C(=O)O (some centres undefined) returns the recorded outcome of this test.
stdout: inactive

stdin: GET /call?item= COc1ccc2c3c1OC1C4(CCC5C(C2)N(CC2CC2)CCC351)OCCO4 (centres undefined) returns the recorded outcome of this test.
stdout: inactive

stdin: GET /call?item= O=C1OC(c2ccccc2)N/C1=C\c1ccc2c(c1)OCO2 (centres undefined) returns the recorded outcome of this test.
stdout: inactive

stdin: GET /call?item= O=C(O)Cc1cccc2c1OC(c1ccccc1)C(C(=O)c1ccccc1)C2=O (centres undefined) returns the recorded outcome of this test.
stdout: inactive

stdin: GET /call?item= N#Cc1c(N)oc(-c2ccc([N+](=O)[O-])cc2)c1C#N returns the recorded outcome of this test.
stdout: inactive

stdin: GET /call?item= COC(=O)/C=C1/OC(c2ccc(Br)cc2)=C(Br)C1=O returns the recorded outcome of this test.
stdout: inactive

stdin: GET /call?item= COC(=O)C(=O)C(C(C)=O)C(=O)C(=O)Nc1ccc(C)cc1C (centres undefined) returns the recorded outcome of this test.
stdout: inactive
